# target_or_test_system: T1, recombinant human 4R0N tau (human, UniProt P10636 2-758)
# T1 construct: also called P10636-6
# T1 sequence (P10636 other isoform, or with tags, fused parts or gaps limits assumed): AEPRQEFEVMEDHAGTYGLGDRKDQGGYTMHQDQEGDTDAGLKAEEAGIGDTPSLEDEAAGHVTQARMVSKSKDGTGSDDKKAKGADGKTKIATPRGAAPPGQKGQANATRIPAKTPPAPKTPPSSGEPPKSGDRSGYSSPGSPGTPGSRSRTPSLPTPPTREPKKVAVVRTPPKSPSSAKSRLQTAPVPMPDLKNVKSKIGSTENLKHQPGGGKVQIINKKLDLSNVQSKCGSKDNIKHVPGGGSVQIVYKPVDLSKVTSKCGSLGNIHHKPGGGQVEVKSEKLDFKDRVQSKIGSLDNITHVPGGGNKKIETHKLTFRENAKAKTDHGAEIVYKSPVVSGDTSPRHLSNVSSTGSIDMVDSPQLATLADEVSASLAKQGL
# run_description: SPR, Biacore T200, antibody captured on anti-human Fc, tau as analyte, 1:1 fit
quantity_name: koff (s⁻¹)
# output: bare number, implied unit s⁻¹

hu3D6VHv1bA11/L2-DIM7 (antibody, V domains shown, Humanized antibody with human Fc; also called hu3D6VHv1bA11 / hu3D6VLv2 L54G) VH: EVQLVQSGAEVVKPGATVKISCKASGFNIKDYYLHWVRQRPGQGLEWIGWIDPENGDTVYDPKFQGRATITADTSTDTAYLQLGSLTSEDTAVYFCSTLDFWGQGTLVTVSS VL: DVVMTQSPLSLPVTLGQPASISCKSSQSLLDSDGKTYLNWLLQRPGQSPRRLIYLVSKGDSGVPDRFSGSGSGTDFTLKISRVEAEDVGVYYCWQGTHFPYTFGGGTKLEIK	0.000971
h3D6VHvb8/L2-DIM8 (antibody, V domains shown, Humanized antibody with human Fc; also called hu3D6VHv1bA11 D60E / hu3D6VLv2 L37Q) VH: EVQLVQSGAEVVKPGATVKISCKASGFNIKDYYLHWVRQRPGQGLEWIGWIDPENGDTVYEPKFQGRATITADTSTDTAYLQLGSLTSEDTAVYFCSTLDFWGQGTLVTVSS VL: DVVMTQSPLSLPVTLGQPASISCKSSQSLLDSDGKTYLNWLQQRPGQSPRRLIYLVSKLDSGVPDRFSGSGSGTDFTLKISRVEAEDVGVYYCWQGTHFPYTFGGGTKLEIK	0.0014

Next:
Form field koff, entry hu3D6VHv1bA11/L2-DIM9 (antibody, V domains shown, Humanized antibody with human Fc; also called hu3D6VHv1bA11 / hu3D6VLv2 S52G) VH: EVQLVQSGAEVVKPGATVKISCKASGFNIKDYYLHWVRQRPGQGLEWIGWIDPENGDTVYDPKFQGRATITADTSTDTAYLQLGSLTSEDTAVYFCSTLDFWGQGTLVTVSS VL: DVVMTQSPLSLPVTLGQPASISCKSSQSLLDSDGKTYLNWLLQRPGQSPRRLIYLVGKLDSGVPDRFSGSGSGTDFTLKISRVEAEDVGVYYCWQGTHFPYTFGGGTKLEIK : 0.00074

Entry source: patent US20200369755A1
